Biological target: Phosphorylase b kinase gamma catalytic chain, skeletal muscle/heart isoform (Homo sapiens) (UniProt Q16816);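 also: values are averaged percent inhibition of PHKG1 kinase activity, from the GSK PKIS inhibitor-set screen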
Sequence (Q16816 whole entry, looked up, canonical isoform): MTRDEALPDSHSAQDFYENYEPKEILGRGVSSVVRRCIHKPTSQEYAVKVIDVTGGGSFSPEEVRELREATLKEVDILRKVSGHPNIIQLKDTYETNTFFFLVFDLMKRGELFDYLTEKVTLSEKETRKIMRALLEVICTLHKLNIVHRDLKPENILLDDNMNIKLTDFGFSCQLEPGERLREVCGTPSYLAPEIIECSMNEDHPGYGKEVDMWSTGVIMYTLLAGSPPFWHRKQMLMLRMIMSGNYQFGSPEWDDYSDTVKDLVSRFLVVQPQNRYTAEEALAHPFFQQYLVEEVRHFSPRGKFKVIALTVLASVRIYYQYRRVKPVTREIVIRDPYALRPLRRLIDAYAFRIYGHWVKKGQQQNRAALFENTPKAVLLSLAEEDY
Settings: at 0.1 µM

- Sample smiles: "Cc1ccc2c(-c3ccnc(Nc4cccc(C(F)(F)F)c4)n3)c(-c3ccccc3)nn2n1"
  inhibition: "2.62%"
- Sample smiles: "NS(=O)(=O)c1ccc(Nc2cc(-c3cccc(O)c3)n[nH]2)cc1"
  inhibition: "3.73%"
- Sample smiles: "COc1cc2ncnc(Nc3ccc(C)c(O)c3)c2cc1OC"
  inhibition: "6.64%"
- Sample smiles: "Cc1cc(O)cc(C)c1/C=C/c1cncc(C(=O)N(C)C)c1"
  inhibition: "3.09%"
- Sample smiles: "COC(=O)c1cncc(/C=C/c2c(C)cc(O)cc2C)c1"
  inhibition: "1.77%"
- Sample smiles: "Cc1cc(-c2ccccn2)cc(C)c1/C=C/c1cncc(-c2nn[nH]n2)c1"
  inhibition: "3.51%"
- Sample smiles: "CN(c1ccc(NC(=O)Nc2ccc(OC(F)(F)F)cc2)cc1)c1ccnc(Nc2cccc(S(N)(=O)=O)c2)n1"
  inhibition: "1.77%"
- Sample smiles: "CCS(=O)(=O)c1ccc(OC)c(Nc2ncc(-c3cccc(OC)c3)o2)c1"
  inhibition: "1.03%"
- Sample smiles: "CCS(=O)(=O)c1ccc(OC)c(Nc2nccc(N(C)c3ccc4c(C)n[nH]c4c3)n2)c1"
  inhibition: "6.38%"
- Sample smiles: "COc1cc2ncn(-c3cc(OCc4ccccc4S(C)(=O)=O)c(C#N)s3)c2cc1OC"
  inhibition: "45.2%"
- Sample smiles: "Oc1cccc(-c2nc(-c3ccccc3)[nH]c2-c2ccncc2)c1"
  inhibition: "4.05%"
- Sample smiles: "CN(C)C(=O)O[C@H]1CN[C@H](C#Cc2cc3ncnc(Nc4ccc(OCc5cccc(F)c5)c(Cl)c4)c3s2)C1"
  inhibition: "2.62%"
- Sample smiles: "CS(=O)(=O)Nc1cccc(-c2ccc3c(NC(=O)C4CC4)n[nH]c3c2)c1"
  inhibition: "3.02%"
- Sample smiles: "c1ccc(Nc2ncc(-c3ccccc3)o2)cc1"
  inhibition: "2.61%"
